- System: 699152-130-R-J1-PDC complex spheroid growth;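 further: compound exposure lasted 7 days after spheroids had grown for 3 days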
- Procedure Summary: Anticancer human tumor 699152-130-R-J1-PDC patient-derived pancreatic carcinoma cell line growth inhibition [AhR]
- Stated Conditions: second compound 1 µM; first compound 0.316 µM; active compounds read low
Experimental Readout: viability, T/C

{"Molecule": "CC(C)c1c(-c2ccccc2)nc2c(C#N)c[nH]n2c1=O + Cc1cncc(-c2nc(NCCc3c[nH]c4ccccc34)c3ncn(C(C)C)c3n2)c1", "Experimental Readout": "viability, T/C", "Data Value": "121%"}
{"Molecule": "NS(=O)(=O)OCC1CC(n2ccc3c(NC4CCc5ccccc54)ncnc32)CC1O (stereo unspecified) + Cc1ccccc1N=Nc1ccc(NC(=O)c2ccnn2C)c(C)c1", "Experimental Readout": "viability, T/C", "Data Value": "105%"}
{"Molecule": "CC1COCCN1c1cc(-c2ccnn2C)c2ccnc(-c3ccn[nH]3)c2n1 (stereo unspecified) + Cc1ccccc1N=Nc1ccc(NC(=O)c2ccnn2C)c(C)c1", "Experimental Readout": "viability, T/C", "Data Value": "79.5%"}
{"Molecule": "Nc1ncn(C2CC(O)C(CO)O2)c(=O)n1 (stereo unspecified) + Cc1ccccc1N=Nc1ccc(NC(=O)c2ccnn2C)c(C)c1", "Experimental Readout": "viability, T/C", "Data Value": "88.7%"}
{"Molecule": "O=C(c1cc(Cc2n[nH]c(=O)c3ccccc23)ccc1F)N1CCN(C(=O)C2CC2)CC1 + Cc1ccccc1N=Nc1ccc(NC(=O)c2ccnn2C)c(C)c1", "Experimental Readout": "viability, T/C", "Data Value": "90.4%"}
{"Molecule": "COc1ccc([C@@H](O)c2cc(-c3ncnc4cc(N5CCOCC5)ccc34)c(F)cc2Cl)nn1 + Cc1ccccc1N=Nc1ccc(NC(=O)c2ccnn2C)c(C)c1", "Experimental Readout": "viability, T/C", "Data Value": "87.2%"}

The reported measurements were obtained from PubChem BioAssay AID1919001.
